These data points were gathered from patent US20070231333A1.

Target: T1, human 5T4 antigen (Homo sapiens, UniProt Q13641)
T1 sequence (Q13641 32-420): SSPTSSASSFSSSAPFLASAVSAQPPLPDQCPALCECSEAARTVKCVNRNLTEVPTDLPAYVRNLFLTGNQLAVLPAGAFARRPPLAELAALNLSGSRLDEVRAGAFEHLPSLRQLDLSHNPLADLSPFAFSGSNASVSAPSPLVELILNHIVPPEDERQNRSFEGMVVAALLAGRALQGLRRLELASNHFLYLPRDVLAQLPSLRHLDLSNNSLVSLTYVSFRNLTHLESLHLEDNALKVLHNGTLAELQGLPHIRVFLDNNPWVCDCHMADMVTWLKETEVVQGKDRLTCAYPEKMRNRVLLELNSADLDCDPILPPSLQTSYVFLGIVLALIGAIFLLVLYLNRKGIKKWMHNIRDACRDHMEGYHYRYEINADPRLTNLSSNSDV
Assay: BIACORE analysis of antibody binding to human 5T4 antigen immobilized on a CM5 chip
Conditions: chimeric and humanized antibodies, Table 12
Catalogue of ka readings, one per entry.
Response body: numeric value in M⁻¹ s⁻¹, unit text excluded.

Please review the following examples before continuing.
- molecule: "chimeric A1: chimeric A1 antibody: murine A1 variable regions, human IgG4 heavy chain and human kappa light chain constant regions (antibody, V domains shown) VH: QIQLVQSGPELKKPGETVKISCKASGYTFTNFGMNWVKQGPGEGLKWMGWINTNTGEPRYAEEFKGRCAFSLETTASTAYLQINNLKNEDTATYFCARDWDGAYFFDYWGQGTTLTVSS VL: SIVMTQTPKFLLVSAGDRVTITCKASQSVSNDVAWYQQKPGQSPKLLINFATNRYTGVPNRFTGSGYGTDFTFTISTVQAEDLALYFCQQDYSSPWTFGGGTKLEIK"
  ka (M⁻¹ s⁻¹): 150000
- molecule: "chimeric A2: chimeric A2 antibody: murine A2 variable regions, human IgG4 heavy chain and human kappa light chain constant regions (antibody, V domains shown) VH: QVQLQQSRPELVKPGASVKMSCKASGYTFTDYVISWVKQRTGQGLEWIGEIYPGSNSIYYNEKFKGRATLTADKSSSTAYMQLSSLTSEDSAVYFCAMGGNYGFDYWGQGTTLTVSS VL: QIVLTQSPAIMSASLGERVTLTCTASSSVNSNYLHWYQQKPGSSPKLWIYSTSNLASGVPARFSGSGSGTSYSLTISSMEAEDAATYYCHQYHRSPLTFGAGTKLELK"
  ka (M⁻¹ s⁻¹): 140000
- molecule: "Chimeric A1 + C67F: chimeric A1 antibody bearing C67F mutation in the heavy chain variable region (antibody, V domains shown) VH: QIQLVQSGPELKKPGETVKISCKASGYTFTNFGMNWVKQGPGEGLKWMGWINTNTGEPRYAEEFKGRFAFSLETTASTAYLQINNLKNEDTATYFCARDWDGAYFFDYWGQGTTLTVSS VL: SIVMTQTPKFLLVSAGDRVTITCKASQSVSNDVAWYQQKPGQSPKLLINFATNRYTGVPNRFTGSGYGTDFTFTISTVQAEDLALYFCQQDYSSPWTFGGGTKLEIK"
  ka (M⁻¹ s⁻¹): 170000

We next turn to a different molecule, shown below.
Chimeric A3 + C91Y: chimeric A3 antibody bearing C91Y mutation in the heavy chain variable region (antibody, V domains shown) VH: EVQLVESGGGLVQPKGSLKLSCAASGFTFNTYAMNWVRQAPGKGLEWVARIRSKSNNYATYYADSVKDRFTISRDDSQSMLYLQMNNLKTEDTAMYYCVRQWDYDVRAMNYWGQGTSVTVSS VL: DIVMTQSHIFMSTSVGDRVSITCKASQDVDTAVAWYQQKPGQSPKLLIYWASTRLTGVPDRFTGSGSGTDFTLTISNVQSEDLADYFCQQYSSYPYTFGGGTKLEIK has a reported ka of 27000
